Let's look at some compounds and their measured MIC50.
System: vancomycin-resistant Enterococcus (VRE)
protocol-text: agar dilution method, inhibitory effect on VRE
Assay type: cell-based
experimental-conditions: Enterococcus, read-out: Minimum inhibitory concentration (MIC50, μg/ml) VRE
measurement-type: MIC50 (µg/mL)

[
  {
    "compound": "C=Cn1nnc(-c2ccc(-c3ccc(N4C[C@@H](C(C)O)OC4=O)cc3F)cn2)n1.O=P(O)(O)O (stereo partly shown)",
    "quantitative-result": 0.9
  },
  {
    "compound": "C=Cn1nnc(-c2ccc(-c3ccc(N4C[C@H](CO)OC4=O)cc3F)cn2)n1.O=P(O)(O)O",
    "quantitative-result": 0.2
  },
  {
    "compound": "CCCn1nnc(-c2ccc(-c3ccc(N4C[C@H](C(C)O)OC4=O)cc3F)cn2)n1.O=P(O)(O)O (stereo partly shown)",
    "quantitative-result": 1.3
  },
  {
    "compound": "Cn1nnc(-c2ccc(-c3ccc(N4C[C@H](COP(=O)(O)O)OC4=O)cc3F)cn2)n1 [Tedizolid phosphate, reference compound]",
    "quantitative-result": 2
  }
]

The origin of these recorded values is patent US12173020B2.
